- target desc: T1, SRA-Spacer-652 (human, UniProt Q96T88 414-652)
- T1 sequence: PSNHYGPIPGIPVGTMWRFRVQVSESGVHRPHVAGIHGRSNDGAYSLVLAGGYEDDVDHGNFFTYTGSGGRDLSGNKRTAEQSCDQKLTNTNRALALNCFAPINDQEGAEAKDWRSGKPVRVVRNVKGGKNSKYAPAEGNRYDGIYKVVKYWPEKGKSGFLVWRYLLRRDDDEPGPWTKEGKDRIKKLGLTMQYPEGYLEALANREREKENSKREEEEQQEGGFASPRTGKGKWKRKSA
- assay info: FP; ITC: 10 mM HEPES pH 8.0, 100 mM NaCl, 18 C; EMSA: 20 mM HEPES pH 7.5, 100 mM NaCl, 8% glycerol, 1 mM DTT, on ice; pull-down: 20 mM HEPES-NaOH pH 8.0, 100 mM NaC
readout kind: Kd (nM)
Give the number; nM is assumed, so skip it.

Please look at this binder and report its Kd: FAM-12bp-HM-DNA (dsDNA, 5-methyl-dC at position 6 of strand 2 (GTCAGXGCATGG)) DNA 1: CCATGCGCTGAC DNA 2: GTCAGCGCATGG
1870
